# credit: the supplement of paper PMC10307832

System: SK-LU-1
protocol: relative viability (nuclei count vs DMSO), 5 days (fraction); higher = more cells survive
assay_setup: first compound 0.08 µM
Response field label takes Y when relative viability is strictly below 0.7 and N in all other cases.

| compound | label_value |
| --- | --- |
| O=c1[nH]c2ccccc2n1C1CCN(CCCC(c2ccc(F)cc2)c2ccc(F)cc2)CC1 [Pimozide] + N=C(N)NC(=N)NCCc1ccccc1 [Phenformin] (partner 250 µM) | Y |
| Cc1cnc(-c2cnc(NCCNc3ccc(C#N)cn3)nc2-c2ccc(Cl)cc2Cl)[nH]1 + O=C(CCCCCCC(=O)Nc1ccccc1)NO [Vorinostat] (partner 1 µM) | N |
| O=c1[nH]c2ccccc2n1C1CCN(CCCC(c2ccc(F)cc2)c2ccc(F)cc2)CC1 [Pimozide] + COc1cc2c(Oc3ccc(NC(=O)C4(C(=O)Nc5ccc(F)cc5)CC4)cc3F)ccnc2cc1OCCCN1CCOCC1 [Foretinib] (partner 0.25 µM) | N |
| O=c1[nH]c2ccccc2n1C1CCN(CCCC(c2ccc(F)cc2)c2ccc(F)cc2)CC1 [Pimozide] + Nc1nc2[nH]cc(CCc3ccc(C(=O)N[C@@H](CCC(=O)O)C(=O)O)cc3)c2c(=O)[nH]1 [Pemetrexed] (partner 0.2 µM) | N |
| Cc1cnc(-c2cnc(NCCNc3ccc(C#N)cn3)nc2-c2ccc(Cl)cc2Cl)[nH]1 + Cc1cc(Nc2cc(N3CCN(C)CC3)nc(Sc3ccc(NC(=O)C4CC4)cc3)n2)n[nH]1 [Tozasertib] (partner 0.1 µM) | Y |
